# SYSTEM_UNDER_TEST: T1, CAPRIN-1 protein expressed on the membrane surface of human cancer cells (human, UniProt Q14444 2-709)
# T1 sequence (looked up): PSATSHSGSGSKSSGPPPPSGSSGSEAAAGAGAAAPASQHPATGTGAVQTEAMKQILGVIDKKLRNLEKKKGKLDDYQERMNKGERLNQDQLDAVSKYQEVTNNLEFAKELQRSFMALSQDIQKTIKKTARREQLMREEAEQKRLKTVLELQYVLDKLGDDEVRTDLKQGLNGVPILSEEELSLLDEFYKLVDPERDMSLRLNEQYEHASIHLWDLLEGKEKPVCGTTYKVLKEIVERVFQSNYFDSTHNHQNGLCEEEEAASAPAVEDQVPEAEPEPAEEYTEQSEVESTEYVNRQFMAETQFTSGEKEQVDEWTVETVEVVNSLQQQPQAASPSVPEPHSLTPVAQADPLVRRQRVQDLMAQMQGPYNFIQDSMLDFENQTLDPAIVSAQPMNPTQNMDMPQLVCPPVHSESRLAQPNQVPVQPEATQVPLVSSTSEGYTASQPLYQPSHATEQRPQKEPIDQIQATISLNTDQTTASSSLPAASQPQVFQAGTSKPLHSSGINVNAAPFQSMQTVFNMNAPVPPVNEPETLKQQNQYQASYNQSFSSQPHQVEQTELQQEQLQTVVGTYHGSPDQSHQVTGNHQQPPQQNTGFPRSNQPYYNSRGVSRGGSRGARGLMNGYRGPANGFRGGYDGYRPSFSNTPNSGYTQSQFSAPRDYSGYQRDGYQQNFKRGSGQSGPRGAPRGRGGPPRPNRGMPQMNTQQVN
# TEST_NAME: cell-based or functional assay
MEASURED_QUANTITY: ADCC cytotoxic activity (51Cr release) on T24

humanized antibody #4 (antibody, V domains shown) VH: EVQLVESGGGLVQPGGSLRLSCAASGFSLSSHSLGWVRQAPGKGLEWIGDIRSGGSAYYANWAKGRFTISRDNSKNTLYLQMNSLRAEDTAVYFCTRTNGPSDLTNRLDLWGQGTLVTVSS VL: EIVLTQSPSSLSASVGDRVTINCQASQSLYNNENLAWFQQKPGKVPKRLIYGASTLASGVSSRFSGSGSGTEFTLTISNLQPEDFATYYCLGEFSCGSADCFAFGGGTKVEIK: ≥ 33%
humanized antibody #8 (antibody, V domains shown) VH: QSLVESGGGLVQPGGSLRLSCAASGFSLSSHSLGWVRQAPGKGLEWIGDIRSGGSAYYANWAKGRFTISRTSSKNTVYLQMNSLRAEDTAVYFCTRTNGPSDLTNRLDLWGQGTLVTVSS VL: QVLTQSPSSLSASVGDRVTINCQASQSLYNNENLAWFQQKPGKVPKRLIYGASTLASGVSSRFSGSGSGTEFTLTISSLQCEDFAIYYCLGEFSCGSADCFAFGGGTKVEIK: ≥ 30%

Briefly, ADCC cytotoxic activity (51Cr release) on T24 measured for humanized antibody #6 (antibody, V domains shown) VH: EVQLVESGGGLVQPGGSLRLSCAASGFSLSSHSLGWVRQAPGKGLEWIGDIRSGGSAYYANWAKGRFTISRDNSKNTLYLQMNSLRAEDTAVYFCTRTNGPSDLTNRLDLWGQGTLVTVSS VL: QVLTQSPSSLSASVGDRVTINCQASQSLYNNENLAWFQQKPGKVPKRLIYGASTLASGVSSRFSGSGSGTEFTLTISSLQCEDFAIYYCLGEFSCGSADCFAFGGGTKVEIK : ≥ 36%

Source listed as patent US20160297889A1.
